Target: T1, human myostatin (mature, recombinant; R&D Systems) (human, UniProt O14793 267-375)
T1 construct: biotinylated in the mRNA display selection; also called GDF-8; mature myostatin
T1 sequence: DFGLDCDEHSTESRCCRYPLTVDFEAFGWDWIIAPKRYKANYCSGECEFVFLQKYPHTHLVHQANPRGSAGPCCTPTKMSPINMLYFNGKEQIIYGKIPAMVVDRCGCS
Test: SPR format A, 25C
Collected Kd values appear next to each entry.
Unit nM implied. Number only.

ATI-1379 [40K 2-branch PEG] (designed binder, 40K 2-branch PEG on the Cys of the EGSGC tail) MGVSDVPRDLEVVAATPTSLLISWSLPHQGKANYYRITYGETGGNSPVQEFTVPGRGVTATISGLKPGVDYTITVYAVTVTDTGYLKYKPISINYRTEGSGCHHHHHH	9.5

With those in mind, consider the next binder.
**Query** Would you kindly share the measured Kd for 2525_D05 (designed binder) MGVSDVPRDLEVVAATPTSLLISWSLPYAGHLNYYRITYGETGGNSPVQEFTVPGRGVTATISGLKPGVDYTITVYAVTLTKSQLIHYMPISINYRTEIDKPSQHHHHHH ?
**Result** 1.28
